Read-out: Interleukin-8 (IL8), CXCL8 (gene 3576)
Assay: BSK_LPS_IL8: BioMAP Diversity Plus: LPS Assay for Interleukin-8 (IL8) Biomarker Activity (AID 2283078)
Settings: primary human HUVEC with PBMC; actives raise or lower the signal
Calls of active or inactive are those of the source. The calls were made as follows: active = hit-call score of the fitted dose curve at least 0.9, where 1 is the maximum; inactive = score below 0.9.
Assign a class; possible classes are t for active, f for inactive

Worked cases, answers included:
ClC1=C(Cl)[C@]2(Cl)[C@@H]3[C@@H]4C[C@@H]([C@H]5O[C@@H]45)[C@@H]3[C@@]1(Cl)C2(Cl)Cl; f
Cc1cc2c3c(c1)C(c1ccccc1)=N[C@@H](NC(=O)c1ccncc1)C(=O)N3CC2; f
Cc1ccccc1O; f
C=CC(N)=O; f
C=CC(=O)NCNC(=O)C=C; f
COc1ccc(O)c(C(C)(C)C)c1; f
c1ccc(-c2ccccc2)cc1; f
N#Cc1ccc(N(CC(N)=O)CC(F)(F)F)cc1C(F)(F)F; f

What did this assay record as the result for CC(C)C(=O)OCC(C)(C)C(OC(=O)C(C)C)C(C)C (stereo not given) ? f

Now consider ClC1=C(Cl)[C@]2(Cl)[C@@H]3[C@H]4C[C@H]([C@@H]5O[C@H]45)[C@@H]3[C@@]1(Cl)C2(Cl)Cl and answer again. f

Now consider CCC(=O)O[C@H]1CC[C@H]2[C@@H]3CCC4=CC(=O)CC[C@]4(C)[C@H]3CC[C@]12C and answer again. t

Now consider O=C(O)C(F)(F)C(F)(F)C(F)(F)C(F)(F)C(F)(F)F and answer again. f

Now consider CN(C)c1nc(=O)n(C2CCCCC2)c(=O)n1C and answer again. f

Now consider O=C(NC(=O)c1cc(F)c(F)cc1Cl)Nc1cc(F)ccc1N1CCC(C(=O)O)CC1 and answer again. f

Now consider CCCCCCCCOC(=O)c1ccccc1C(=O)OCCCCCCCC and answer again. f

Now consider CC(c1ccc(O)cc1)(c1ccc(O)cc1)c1ccc(O)cc1 and answer again. f

Now consider Cc1cc(-c2ccc(N)c(C)c2)ccc1N and answer again. f

Now consider CO/C=C(/C(=O)OC)c1ccccc1COc1cccc(C(F)(F)F)n1 and answer again. t

Now consider Oc1ccc(Cl)cc1Cl and answer again. f

Now consider COS(=O)(=O)OC and answer again. f

* * *

Molecular target: Transcriptional activator Myb (Homo sapiens) (UniProt P10242)
Sequence (P10242 whole entry, looked up): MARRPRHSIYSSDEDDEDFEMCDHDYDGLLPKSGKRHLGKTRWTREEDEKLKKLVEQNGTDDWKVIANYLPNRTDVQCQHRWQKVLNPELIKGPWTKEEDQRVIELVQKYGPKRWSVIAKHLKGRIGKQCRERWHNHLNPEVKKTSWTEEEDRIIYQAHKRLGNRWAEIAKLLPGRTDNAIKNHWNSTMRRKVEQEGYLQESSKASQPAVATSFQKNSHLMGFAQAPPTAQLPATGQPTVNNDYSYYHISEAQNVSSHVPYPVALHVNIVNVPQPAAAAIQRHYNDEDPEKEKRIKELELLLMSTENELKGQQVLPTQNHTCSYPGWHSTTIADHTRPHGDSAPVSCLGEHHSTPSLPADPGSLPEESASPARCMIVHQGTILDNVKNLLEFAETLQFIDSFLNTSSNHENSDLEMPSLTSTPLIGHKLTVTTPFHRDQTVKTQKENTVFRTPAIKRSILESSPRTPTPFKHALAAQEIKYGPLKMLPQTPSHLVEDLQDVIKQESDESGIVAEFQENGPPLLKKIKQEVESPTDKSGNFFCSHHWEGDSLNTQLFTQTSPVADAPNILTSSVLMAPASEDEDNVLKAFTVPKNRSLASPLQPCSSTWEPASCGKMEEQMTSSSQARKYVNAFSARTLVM
Assay: ATG_Myb_CIS: Attagene CIS-FACTORIAL HepG2 Assay for human Myeloblastosis (Myb) Proto-Oncogene Transcription Factor (AID 2282986)
Details: HepG2 Attagene CIS-FACTORIAL Myb reporter transcription; actives raise or lower the signal
Activity calls are given as the source filed them. How the source made its calls: active means hit-call score of the fitted dose curve at least 0.9, where 1 is the maximum; inactive means score below 0.9.
OBSERVABLE: outcome

Here is how some compounds turned out for outcome.
O=C(N[C@H]1CN2CCC1CC2)c1cc2ccoc2cn1; inactive
COS(=O)(=O)OC; inactive
CCOCCOC(C)=O; inactive
Cc1cccc(C)c1N; inactive
CN(C)CCO; inactive

# lookup: outcome of Clc1ccc(Cl)cc1 inactive

Now consider O=S(=O)(O)C(F)(F)C(F)(F)C(F)(F)C(F)(F)F and answer again. inactive

Now consider ClC1=C(Cl)[C@]2(Cl)[C@@H]3[C@@H](Cl)[C@H]4O[C@H]4[C@@H]3C1(Cl)C2(Cl)Cl and answer again. inactive
